run description: Evaluation of conversion rate to active form in buffer solution (Experimental Example 1)
Format: physicochemical
test parameters: pH7.4, 0 hr
Experimental: For Examples 1 to 16 and Comparative Examples 1 to 14, the attrition rate of the test compound and the conversion rate of the test compound to Alvocidib in a buffer solution were calculated by the following method. Examples 1 to 16 and Comparative Examples 1 to 14 were each left in buffer solutions adjusted to pH 5.0, 5.5, 6.0, 6.5, 7.0 and 7.4, respectively, at a concentration of 25 umol/L at 37° C. […]
observed property: Residual rate (%)

CC(C)[C@H](N)C(=O)O[C@@H]1CN(C)CC[C@@H]1c1c(O)cc(O)c2c(=O)cc(-c3ccccc3Cl)oc12 [Comparative Example 10, reference compound]	93.2
CCCCCCC(=O)O[C@@H]1CN(C)CC[C@@H]1c1c(O)cc(O)c2c(=O)cc(-c3ccccc3Cl)oc12 [Comparative Example 11, reference compound]	92.9
CNC(=O)Oc1cc(O)c2c(=O)cc(-c3ccccc3Cl)oc2c1[C@H]1CCN(C)C[C@H]1O [Comparative Example 2, reference compound]	63.9
CCNC(=O)O[C@@H]1CN(C)CC[C@@H]1c1c(O)cc(O)c2c(=O)cc(-c3ccccc3Cl)oc12 [Comparative Example 4, reference compound]	97.7
CCC(=O)O[C@@H]1CN(C)CC[C@@H]1c1c(O)cc(O)c2c(=O)cc(-c3ccccc3Cl)oc12	93.7
CN1CC[C@H](c2c(O)cc(O)c3c(=O)cc(-c4ccccc4Cl)oc23)[C@H](OC(=O)c2ccccc2F)C1	98.0
CNCCN(C)C(=O)Oc1cc(O)c2c(=O)cc(-c3ccccc3Cl)oc2c1[C@H]1CCN(C)C[C@H]1O [Comparative Example 14, reference compound]	84.4
CCOC(=O)O[C@@H]1CN(C)CC[C@@H]1c1c(O)cc(O)c2c(=O)cc(-c3ccccc3Cl)oc12 [Comparative Example 3, reference compound]	91.0
CN1CC[C@H](c2c(OC(=O)N(C)CCN)cc(O)c3c(=O)cc(-c4ccccc4Cl)oc23)[C@H](O)C1 [Comparative Example 13, reference compound]	97.2
CNC(=O)O[C@@H]1CN(C)CC[C@@H]1c1c(O)cc(O)c2c(=O)cc(-c3ccccc3Cl)oc12 [Comparative Example 5, reference compound]	93.3
CN1CC[C@H](c2c(O)cc(O)c3c(=O)cc(-c4ccccc4Cl)oc23)[C@H](OC(=O)CN)C1 [Comparative Example 8, reference compound]	83.1
CN1CC[C@H](c2c(O)cc(O)c3c(=O)cc(-c4ccccc4Cl)oc23)[C@H](OC(=O)[C@@H](N)CO)C1 [Comparative Example 9, reference compound]	85.3
C[C@H](N)C(=O)O[C@@H]1CN(C)CC[C@@H]1c1c(O)cc(O)c2c(=O)cc(-c3ccccc3Cl)oc12 [Comparative Example 7, reference compound]	95.3
